src = patent US4975433A

Kindly state Kp, initial phase for each of the entries shown.
# experimental-context: mouse, 100000 uM
Marks after values point to notes of the source that are not given here.

Look over these answered cases.
Fill in: Kp, initial phase of CN1CCN(CNc2nc(=O)n(CN3CCN(C)CC3)cc2F)CC1 [XVII, hydrate] is ___
67.3 cm/h (× 10^3)

Fill in: Kp, initial phase of O=c1nc(NCN2CCOCC2)c(F)cn1CN1CCOCC1 [XVI, hydrate] is ___
73.9 cm/h (× 10^3)

# return Kp, initial phase for each item in the list
1. O=c1nc(NCN2CCCCC2)c(F)cn1CN1CCCCC1
2. CN(C)CNc1nc(=O)n(CN(C)C)cc1F [XIII, hydrate]

["174 cm/h (× 10^3)", "149 cm/h (× 10^3)"]
